Tested on: HCT116 MTAP−/− cells
protocol text: Inhibition of proliferation of HCT116 MTAP-/- cells (Cell-Titer Glo, 7 days)
Format: cell-based
conditions: Homo sapiens, HCT-116, 168 h (7 days) incubation, read-out: HCT116 MTAP−/− antiproliferative activity IC50
pIC50: −log10 of the molar value.
measured parameter: pIC50

COC(=O)c1c(N)c2ccc(C(F)(F)F)cc2n(-c2ccc(C(C)O)nc2)c1=O (centres unmarked)	7.27
COC(=O)c1c(N)c2ccc(Br)cc2n(-c2ccc([C@@H](C)O)cc2)c1=O	8.68
COC(=O)c1c(N)c2ccc(Br)nc2n(-c2ccc(Cl)cc2)c1=O	7.33
COC(=O)c1c(N)c2ccc(OC(F)(F)F)cc2n(-c2ccc([C@@H](C)O)cc2)c1=O	8.82
COC(=O)c1c(N)c2ccc(Br)cc2n(-c2ccc(C(C)O)cc2)c1=O (centres unmarked)	7.63
COC(=O)c1c(N)c2ccc(C(F)(F)F)nc2n(-c2ccc(Cl)nc2)c1=O	7.60
COC(=O)c1c(N)c2ccc(C(F)(F)F)cc2n(-c2ccc([C@@H](C)O)cc2)c1=O	7.78
COC(=O)c1c(N)c2ccc(Br)nc2n(-c2ccc(C(C)O)cc2)c1=O (centres unmarked)	7.49
COC(=O)c1c(N)c2ccc(Br)cc2n(-c2ccc(Cl)c3cnccc23)c1=O	7.41
COC(=O)c1c(N)c2ccc(C(F)(F)F)cc2n(-c2ccc(CO)cc2)c1=O	7.07
COC(=O)c1c(N)c2ccc(C(F)(F)F)nc2n(-c2ccc(C)nc2)c1=O	7.27
COC(=O)c1c(N)c2ccc(C(F)(F)F)nc2n(-c2ccc(Cl)cc2)c1=O	7.51
COC(=O)c1c(N)c2ccc(Br)cc2n(-c2ccc(N)cc2)c1=O	7.09
COC(=O)c1c(N)c2ccc(Br)cc2n(-c2ccc3c(c2)OCO3)c1=O	7.06
COC(=O)c1c(N)c2ccc(C(F)(F)F)cc2n(-c2ccc(C(C)O)cc2)c1=O (centres unmarked)	7.30
COC(=O)c1c(N)c2ccc(C(F)(F)F)nc2n(-c2cccc3cnccc23)c1=O	7.10
COC(=O)c1c(N)c2ccc(Br)nc2n(-c2ccc3ccncc3c2)c1=O	7.33
COC(=O)c1c(N)c2ccc(I)cc2n(-c2ccc(N)cc2)c1=O	7.85
COC(=O)c1c(N)c2ccc(I)cc2n(-c2cccc3cnccc23)c1=O	7.31
COC(=O)c1c(N)c2ccc(C(F)(F)F)nc2n(-c2ccc(OC)nc2)c1=O	7.15
COC(=O)c1c(N)c2ccc(Br)cc2n(-c2cccc3cnccc23)c1=O	7.45
COC(=O)c1c(N)c2ccc(Br)nc2n(-c2cccc3cnccc23)c1=O	7.38
COC(=O)c1c(N)c2ccc(Br)nc2n(-c2cccc3c(Cl)nccc23)c1=O	7.21

The reported numbers originate from patent US20250221979A1.
